Listing of recorded IC50 by entry.
biological target: Human full-length Hsp90 (Homo sapiens, UniProt P08238); construct: E. coli expressed human full-length HSP90 protein, purified >95%; made in house; host or cells: E. coli; assay: Fluorescence polarization assay (competitive binding to HSP90, probe RBT0045864-FAM); details: fluorescence polarization assay, activity range; read-out: Hsp90 FP IC50
Sequence (P08238 whole entry): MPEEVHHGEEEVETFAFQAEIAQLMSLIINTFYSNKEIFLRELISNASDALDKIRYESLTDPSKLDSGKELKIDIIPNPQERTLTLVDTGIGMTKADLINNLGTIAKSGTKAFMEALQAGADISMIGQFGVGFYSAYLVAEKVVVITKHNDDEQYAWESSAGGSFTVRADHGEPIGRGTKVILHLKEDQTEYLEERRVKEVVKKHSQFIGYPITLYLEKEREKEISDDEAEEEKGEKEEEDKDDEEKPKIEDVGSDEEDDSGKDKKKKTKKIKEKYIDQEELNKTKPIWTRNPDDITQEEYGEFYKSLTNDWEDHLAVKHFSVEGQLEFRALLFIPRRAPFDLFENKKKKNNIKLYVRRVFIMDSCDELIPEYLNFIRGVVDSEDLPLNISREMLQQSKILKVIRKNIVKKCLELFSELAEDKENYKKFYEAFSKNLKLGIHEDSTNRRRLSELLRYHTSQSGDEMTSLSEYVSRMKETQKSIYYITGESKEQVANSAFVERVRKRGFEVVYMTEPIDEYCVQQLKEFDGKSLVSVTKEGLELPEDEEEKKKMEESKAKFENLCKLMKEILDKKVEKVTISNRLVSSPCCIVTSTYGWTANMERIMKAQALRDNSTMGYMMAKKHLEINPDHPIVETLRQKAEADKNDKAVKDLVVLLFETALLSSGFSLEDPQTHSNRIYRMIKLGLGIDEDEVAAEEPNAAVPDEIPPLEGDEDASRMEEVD

Example entries and their recorded answers appear below.
compound | endpoint-name | value
CCOC(=O)c1cc2c(-c3ccc(OCc4ccccc4)cc3C)nc(N)nc2s1 [Example 90] | IC50 | > 10 µM
CCNC(=O)c1cc2c(-c3cc(CNCCc4cccs4)ccc3C)nc(N)nc2s1 [Example 214] | IC50 | < 10 µM
CCNC(=O)c1cc2c(-c3cc(CNCC(N)=O)ccc3C)nc(N)nc2s1 [Example 219] | IC50 | < 10 µM
Nc1nc(-c2ccc(Cl)cc2Cl)c2cc(C(=O)Nc3ccc(F)cc3)sc2n1 [Example 135] | IC50 | < 10 µM
Nc1nc(-c2ccc(Cl)cc2Cl)c2cc(C(=O)NCCCn3ccnc3)sc2n1 [Example 146] | IC50 | < 10 µM

Shift focus to the following entry.
Exercise: Entry CNC(=O)c1cc2c(Nc3ccccc3)nc(N)nc2s1 [Example 64] : reported IC50 = ?
Solution: > 10 µM

* * *

biological target: Human full-length Hsp90 (Homo sapiens, UniProt P08238); construct: E. coli expressed human full-length HSP90 protein, purified >95%; made in house; host or cells: E. coli; assay: Fluorescence polarization assay (competitive binding to HSP90, probe RBT0045864-FAM); conditions: fluorescence polarization assay, activity range; read-out: Hsp90 FP IC50
endpoint-name: IC50

Example entries and their recorded answers appear below.
molecule | IC50
Cc1ccc(-c2nc(N)nc3sc(C(=O)NCCc4c[nH]cn4)cc23)c(C)c1 [Example 86] | < 10 µM
CN(C)CCNC(=O)c1cc2c(-c3ccccc3)nc(N)nc2s1 [Example 44] | < 10 µM

Exercise: Entry CCOC(=O)c1cc2c(-c3ccc(C#N)cc3C)nc(N)nc2s1 [Example 32] : reported IC50 = ?
Solution: < 10 µM

Exercise: Entry CCOC(=O)c1cc2c(Oc3ccccc3)nc(N)nc2s1 [Example 19] : reported IC50 = ?
Solution: > 10 µM

Exercise: Entry CCOC(=O)c1cc2c(/C=C/c3cccc(C(F)(F)F)c3)nc(N)nc2s1 [Example 284] : reported IC50 = ?
Solution: < 10 µM

Exercise: Entry Nc1nc(-c2ccc(Cl)cc2Cl)c2cc(C(=O)Nc3ccc(Cl)cc3)sc2n1 [Example 111] : reported IC50 = ?
Solution: < 10 µM

Exercise: Entry Nc1nc(-c2ccc(Cl)cc2Cl)c2cc(C(=O)Nc3ccc(S(=O)(=O)O)cc3)sc2n1 [Example 112] : reported IC50 = ?
Solution: < 10 µM

* * *

molecular target: Human full-length Hsp90 (Homo sapiens); construct: E. coli expressed human full-length HSP90 protein, purified >95%; made in house; host or cells: E. coli; experiment: Fluorescence polarization assay (competitive binding to HSP90, probe RBT0045864-FAM); conditions: fluorescence polarization assay, activity range; read-out: Hsp90 FP IC50
pIC50: −log10 of the molar value.
Listing of recorded pIC50 by entry.

Example entries and their recorded answers appear below.
molecule | pIC50
COc1ccc(CNC(=O)c2cc3c(-c4ccc(Cl)cc4Cl)nc(N)nc3s2)cc1 | > 5.00
CCOC(=O)c1sc2nc(N)nc(-c3ccccc3)c2c1Br | < 5.00
Nc1nc(-c2ccc(Cl)cc2Cl)c2cc(C(=O)NC3CN4CCC3CC4)sc2n1 (stereo not drawn) | > 5.00
CCOC(=O)c1cc2c(NCCCc3c[nH]nc3C)nc(N)nc2s1 | < 5.00
CCOC(=O)c1cc2c(C(=O)c3ccccc3F)nc(N)nc2s1 | > 5.00
CCNC(=O)c1cc2c(-c3cc(C)c(Br)cc3C)nc(N)nc2s1 | > 5.00
CCOC(=O)c1sc2nc(N)nc(-c3ccccc3)c2c1N | < 5.00
CCNC(=O)c1cc2c(-c3c(C)cccc3C)nc(N)nc2s1 | > 5.00

Exercise: Entry `CC(C)CNC(=O)c1cc2c(-c3ccccc3)nc(N)nc2s1` : reported pIC50 = ?
Solution: < 5.00

Exercise: Entry `CCOC(=O)c1cc2c(-c3ccc(OCC(N)=O)cc3C)nc(N)nc2s1` : reported pIC50 = ?
Solution: > 5.00

Exercise: Entry `C=C(c1ccc(Cl)cc1)c1nc(N)nc2sc(C(=O)OCC)cc12` : reported pIC50 = ?
Solution: > 5.00

Exercise: Entry `CCOC(=O)c1cc2c(NCCCc3c[nH]nc3O)nc(N)nc2s1` : reported pIC50 = ?
Solution: < 5.00

Exercise: Entry `Nc1nc(-c2ccc(Cl)cc2Cl)c2cc(C(=O)NCc3ccc(Cl)cc3)sc2n1` : reported pIC50 = ?
Solution: > 5.00
